Below: a set of entries, each annotated with reported normalized growth.
Assay: chemical genetic growth profiling, strain panel (AID 1159580);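 note: tested at 20 µM; growth read once vehicle control cultures reached saturation at 30 °C; 1 = growth at the plate median or of vehicle wells; lower values mean less growth of the strain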
Details: S. cerevisiae deletion strains, growth OD, locus YGL167C, strain pmr1, stronger effect = lower value
The campaign covered roughly 5,500 compounds. About 2,000 (36%) were called active. Roughly 18% stayed inconclusive and do not appear here. This is one part of the list.

MOLECULE: CN1C2CCC1CC(OC(c1ccccc1)c1ccccc1)C2 (configuration not stated)
OBSERVED VALUE: 0.996 (inactive)
//
MOLECULE: CC[C@@]1(O)C[C@H](O[C@H]2C[C@H](N(C)C)[C@H](O)[C@H](C)O2)c2c(cc3c(c2O)C(=O)c2c(O)cccc2C3=O)[C@H]1C(=O)OC
OBSERVED VALUE: 0.963 (inactive)
//
MOLECULE: c1ccc2c(c1)CCCC2C1=NCCN1 (configuration not stated)
OBSERVED VALUE: 1.04 (inactive)
//
MOLECULE: CO/N=C1/CN(c2nc3c(cc2F)c(=O)c(C(=O)O)cn3C2CC2)CC1CN (configuration not stated)
OBSERVED VALUE: 1.01 (inactive)
//
MOLECULE: COc1ccc(C(=O)CC(=O)O)c2c1C=CC(C)(C)O2
OBSERVED VALUE: 0.994 (inactive)
//
MOLECULE: N[C@@H](Cc1ccc(N(CCCl)CCCl)cc1)C(=O)O
OBSERVED VALUE: 0.987 (inactive)
//
MOLECULE: CC[C@@]1(O)C[C@H](O[C@H]2C[C@H](N(C)C)[C@H](O)[C@H](C)O2)c2c(cc3c(c2O)C(=O)c2c(O)ccc(O)c2C3=O)[C@H]1C(=O)OC
OBSERVED VALUE: 0.955 (inactive)
//
MOLECULE: CC[C@@H](C(=O)C(C)[C@@H](O)[C@H](C)CCc1ccc(C)c(O)c1C(=O)O)C1OC(CC)(C2CC[C@](O)(CC)[C@H](C)O2)C[C@@H]1C (some centres not stated)
OBSERVED VALUE: 1.07 (inactive)

Look at this molecule and give its reported normalized growth. CCn1cc(C(=O)O)c(=O)c2cc(F)c(N3CCNCC3)nc21 0.976 (inactive)

Endpoint output: normalized growth of N=c1ccn2c(n1)OC1C(O)C(CO)OC12 (configuration not stated) . Value? 1 (inactive)

Using the record for CN(C)CCOC(c1ccc(Cl)cc1)c1ccccn1 (configuration not stated) , report its normalized growth. 1.01 (inactive)

Request the reported normalized growth associated with C[C@@H]1CC(Cl)CC[C@H]1C(=O)OC(C)(C)C (some centres not stated) 0.973 (inactive)

###

Assay: chemical genetic growth profiling, strain panel (AID 1159580);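 note: tested at 20 µM; growth read once vehicle control cultures reached saturation at 30 °C; 1 = growth at the plate median or of vehicle wells; lower values mean less growth of the strain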
Settings: S. cerevisiae deletion strains, growth OD, locus YGL173C, strain kem1, stronger effect = lower value
In all, about 5,500 compounds went through this assay and about 2,000 (36%) were called active. Another 18% or so got no clear call; they are omitted. This is one part of the list.
Consider the following molecules and their measured normalized growth readings.
Reply: number alone, nothing else.

Consider the reported normalized growth for these molecules:
MOLECULE: C/C=C(\C)C(=O)O[C@H]1C[C@@H](OC(C)=O)[C@@]2(C(=O)OC)CO[C@@H]3C2[C@]12CO[C@](O)(C(=O)OC)[C@H]2[C@](C)(C12O[C@@]1(C)[C@H]1C[C@@H]2OC2OC=C[C@@]21O)[C@@H]3O (some centres not stated)
normalized growth: 0.982
//
MOLECULE: CCN1CCCC(OC(=O)C(c2ccccc2)c2ccccc2)C1 (configuration not stated)
normalized growth: 0.982

From here, focus on the item given below.
Fill blank: measured normalized growth of the molecule NCCS(=O)(=O)O is ____. 0.971
